# tested system: T1, recombinant human VEGF165 (human, UniProt P15692 207-395)
# T1 construct: also called hVEGF165
# T1 sequence (P15692 other isoform, or with tags, fused parts or gaps limits assumed): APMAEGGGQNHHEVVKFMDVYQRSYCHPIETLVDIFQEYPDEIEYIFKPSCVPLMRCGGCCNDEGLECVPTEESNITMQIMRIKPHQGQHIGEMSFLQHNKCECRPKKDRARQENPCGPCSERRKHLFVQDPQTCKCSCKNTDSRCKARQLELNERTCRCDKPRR
# assay procedure: SPR (Biacore), antibody captured by anti-human Fc, hVEGF165 in solution
value type: kon (M⁻¹ s⁻¹)

>>> assay_result("CL-34565-IgG (antibody, V domains shown, also called h4G8 CL-34565) VH: EVQLVQSGSELKKPGASVKVSCKASGYTFTDYGMYWVRQAPGQGLEWMGWIDTETGDPTYADDFKGRFVFSLDTSVSTAYLQISSLKAEDTAVYYCARTNYYYRNYMFYFDYWGQGTMVTVSS VL: EIVLTQSPATLSLSPGERATLFCRASQSVSNHMHWYQQKPGQAPRLLIYGASILESGVPARFSGSGSGTDFTLTISSLEPEDFAVYYCQQSWYDPITFGQGTKLEIK")
"2e+07"
>>> assay_result("CL-34538-IgG (antibody, V domains shown, also called h4G8 CL-34538) VH: EVQLVQSGSELKKPGASVKVSCKASGYTFTDYGMYWVRQAPGQGLEWMGWIDTETGEPTYADDFKGRFVFSLDTSVSTAYLQISSLKAEDTAVYYCARTNYYYPSYMFYFDYWGQGTMVTVSS VL: EIVLTQSPATLSLSPGERATLSCRASQSVSTHMHWYQQKPGQAPRLLIYGASNLESGVPARFSGSGSGTDFTLTISSLEPEDFAVYFCQQTWYDPLTFGQGTKLEIK")
"3.3e+07"
>>> assay_result("CL-34570-IgG (antibody, V domains shown, also called h4G8 CL-34570) VH: EVQLVQSGSELKKPGASVKVSCKASGYTFDDYGMYWVRQAPGQGLEWMGWIDTETGTPTYADDFKGRFVFSLDTSVSTAYLQISSLKAEDTAVYYCARTNYYYSSYMFYFDYWGQGTMVTVSS VL: EIVLTQSPATLSLSPGERATLSCRASQSVSTHMHWYQQKPGQAPRLLIYGASNLESGIPARFSGSGSGTDFTLTISSLEPEDFAVYYCQQSWYDPLTFGQGTKLEIK")
"1.9e+07"
